TARGET UNDER TEST: Ketohexokinase (Homo sapiens)
Sequence (P50053 whole entry): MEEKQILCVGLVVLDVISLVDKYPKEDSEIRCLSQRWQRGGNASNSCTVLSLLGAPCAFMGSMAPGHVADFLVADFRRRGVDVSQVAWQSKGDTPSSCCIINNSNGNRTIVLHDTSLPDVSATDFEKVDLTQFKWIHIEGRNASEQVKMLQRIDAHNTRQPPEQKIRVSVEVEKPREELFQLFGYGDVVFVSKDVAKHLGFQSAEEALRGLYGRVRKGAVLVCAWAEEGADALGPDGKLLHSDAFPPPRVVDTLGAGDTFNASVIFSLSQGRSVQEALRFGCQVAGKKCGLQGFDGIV
PROTOCOL: Inhibition of human KHK-C preincubated for 15 mins followed by substrate addition and measured after 20 mins in presence of ATP by Rapidfire MS analysis
MEASUREMENT TYPE: pIC50
Field pIC50 (float): negative decimal logarithm of the concentration in molar.

Solved cases below.
COMPOUND: C[C@H]1CCN1c1nc(-c2cnn(C3CCOCC3)c2)cc(C(F)(F)F)c1C#N
RESULT: 7.42

COMPOUND: C[C@H]1CCN1c1nc(-c2cnn(C3CCN(CCO)CC3)c2)cc(C(F)(F)F)c1C#N
RESULT: 8.22

Please look at the following compound next.
Lab note: C[C@H]1CCN1c1nc(-c2cnn(CC(=O)N3CCNCC3)c2)cc(C(F)(F)F)n1 [LY-3522348] gave pIC50 of 7.70

====

PROTOCOL: AUC in rat at 3 mg/kg, po measured after 12 hrs
Type: ADME, organism-based
Design: dose 3 mg/kg, time 12 hrs, route po
RUN CONDITIONS: in vivo
MEASUREMENT TYPE: AUC at 12 h (µM·h)
Provide only the numeric value, understood in µM·h.

SMILES: C[C@H]1CCN1c1nc(-c2cnn(CC(=O)NCCO)c2)cc(C(F)(F)F)c1C#N
AUC at 12 h / µM·h: 5.09

Lab note: "OC[C@H]1CCN1c1nc(-c2cnn(C3CCNCC3)c2)cc(C(F)(F)F)n1" gave AUC at 12 h of 1.95

====

PROTOCOL: AUC in dog at 2 mg/kg, po
Format: ADME, organism-based, Canis lupus familiaris
Set-up: dose 2 mg/kg, route po
RUN CONDITIONS: in vivo
MEASUREMENT TYPE: AUC (µM·h)
Provide only the numeric value, understood in µM·h.

Lab note: C[C@H]1CCN1c1nc(-c2cnn(CC(=O)N3CCNCC3)c2)cc(C(F)(F)F)n1 [LY-3522348] gave AUC of 23.2

====

PROTOCOL: Oral bioavailability in rat at 2 mg/kg measured after 12 hrs
Assay type: ADME, organism-based
RUN CONDITIONS: in vivo
MEASUREMENT TYPE: bioavailability

Lab note: C[C@H]1CCN1c1nc(-c2cnn(CC(=O)N3CCNCC3)c2)cc(C(F)(F)F)n1 [LY-3522348] gave bioavailability of 83%

====

PROTOCOL: Oral bioavailability in dog at 2 mg/kg
Format: ADME, organism-based, Canis lupus familiaris
RUN CONDITIONS: in vivo
MEASUREMENT TYPE: bioavailability (%)
Provide only the numeric value, understood in %.

Lab note: "C[C@H]1CCN1c1nc(-c2cnn(CC(=O)N3CCNCC3)c2)cc(C(F)(F)F)n1" gave bioavailability of 87
